Where these numbers come from: PubChem BioAssay (NCI)

Give TGI for every item shown.
# Tested on: SF-295 CNS
# procedure_text: NCI tumour cell line growth inhibition, 48 h

Previously resolved entries follow.
[
  {
    "compound": "CCOc1ccc(NC(=O)C(=O)CC(=O)c2c(C)n([O-])c3ccccc3[n+]2=O)cc1",
    "TGI": "> 100 µM"
  },
  {
    "compound": "CS(=O)(=O)CCNCc1nc(-c2ccc3ncnc(Nc4ccc(OCc5cccc(C(F)(F)F)c5)cc4)c3c2)cs1",
    "TGI": "> 25 µM"
  },
  {
    "compound": "CC1CN(C(=O)CN2CCC(CCCCN(C)C)CC2)c2ccccc2NC1=O (stereo not given)",
    "TGI": "> 100 µM"
  },
  {
    "compound": "O=c1cc(-c2cccc3ccccc23)[nH]c2ncccc12",
    "TGI": "> 100 µM"
  }
]

Then there is this compound:
Consider COC(CNC(=O)C(C)NC(=O)/C=C/c1ccccc1)OC (stereo not given) . Its measured TGI is > 100 µM
